# Tested on: Myc
# protocol-description: Myc inhibition assay: Myc expression per cell by anti-Myc immunofluorescence, high-content imaging
# Type: cell-based, human (patient-derived medulloblastoma xenograft cells)
# run-conditions: Table 1; medulloblastoma PDX cells, 4 h; read-out: IC50 (Myc inhibition)
In this section we review reported IC50 values for a set of compounds.

substance-smiles	IC50
COc1cncc(-c2ccnc(N(C)c3ccccc3)n2)c1	10000 to 100000 nM
Oc1cc(-c2ccnc(Nc3cccnc3)n2)ccn1	1000 to 10000 nM
Cc1ccc(Nc2nccc(-c3ccc4[nH]cnc4c3)n2)cc1C	200 to 1000 nM
Oc1ccc(-c2ccnc(Nc3cccc(C(F)(F)F)c3)n2)cc1	200 to 1000 nM
FC(F)(F)Oc1ccccc1Nc1nccc(-c2ccc3[nH]cnc3c2)n1	200 to 1000 nM
COc1cc(-c2ccnc(Nc3ccnc(C(F)(F)F)c3)n2)ccn1	10000 to 100000 nM
COc1cc(-c2ccnc(Nc3cccnc3)n2)ccn1	1000 to 10000 nM
O=S(=O)(NC1CC1)c1cccc(Nc2nccc(-c3ccc4[nH]cnc4c3)n2)c1	200 to 1000 nM
FC(F)(F)c1cccc(Nc2nccc(-c3cn4ccnc4cn3)n2)c1	1000 to 10000 nM
COc1cc(Nc2ccnc(Nc3cccc(F)c3)n2)ccn1	1000 to 10000 nM

Consider the record given below.
Exam item: Provide measured IC50 value, entry: c1cc(-c2ccc3[nH]cnc3c2)nc(NC2CCCCC2)n1
Marked response: 1000 to 10000 nM

---

The entries below come with measured pIC50 values attached.
# Test system: Myc
# protocol-description: Myc inhibition assay: Myc expression per cell by anti-Myc immunofluorescence, high-content imaging
# Assay type: cell-based, human (patient-derived medulloblastoma xenograft cells)
# run-conditions: Table 1; medulloblastoma PDX cells, 4 h; read-out: IC50 (Myc inhibition)
pIC50: −log10 of the molar value.

A selection of reference data follows.
substance-smiles	recorded-result
Fc1cncc(Nc2nccc(-c3ccc4[nH]cnc4c3)n2)c1	5.00 to 6.00
COc1cc(-c2ccnc(Nc3cccc(F)c3F)n2)ccn1	4.00 to 5.00
Oc1cc(-c2ccnc(Nc3ncccn3)n2)ccn1	4.00 to 5.00
O=C1CNCCN1c1cccc(Nc2nccc(-c3ccc4[nH]cnc4c3)n2)c1	5.00 to 6.00
CN(C)C(=O)c1cccc(Nc2nccc(-c3ccc4[nH]cnc4c3)n2)c1	5.00 to 6.00
Fc1cccc(Nc2nccc(-c3ccc4[nH]ncc4c3)n2)c1	5.00 to 6.00
Fc1cnc(Nc2cccc(C(F)(F)F)n2)cc1-c1ccc2nc[nH]c2c1	> 6.70
COc1ccc(-c2ccnc(Nc3cccc(C(F)(F)F)c3)n2)cn1	5.00 to 6.00
Oc1cc(-c2ccnc(Nc3cccc(F)c3)n2)ccn1	6.00 to 6.70
CC(C)c1ccccc1Nc1nccc(-c2ccc3[nH]cnc3c2)n1	5.00 to 6.00

Exam item: Check the records and state pIC50 for Cn1cnc2ccc(-c3ccnc(Nc4cccc(C(F)(F)F)c4)n3)cc21
Marked response: > 6.70

Exam item: Please report the measured pIC50 for COc1ccc(-c2ccnc(Nc3cccc(F)c3)n2)s1
Marked response: 5.00 to 6.00

Exam item: Output pIC50 of Cn1nccc1CNc1nccc(-c2ccc3[nH]cnc3c2)n1
Marked response: 5.00 to 6.00

---

# Test system: Myc
# protocol-description: Myc inhibition assay: Myc expression per cell by anti-Myc immunofluorescence, high-content imaging
# Format: cell-based, human (patient-derived medulloblastoma xenograft cells)
# run-conditions: Table 1; medulloblastoma PDX cells, 4 h; read-out: IC50 (Myc inhibition)
Reported values of IC50 for individual entries

compound	quantity-name	recorded-result
c1ccc(-n2cc(Nc3nccc(-c4ccc5[nH]cnc5c4)n3)cn2)cc1	IC50	< 0.2 µM

Exam item: Please supply the value of reported IC50 for the item FC(F)(F)c1cccc(Nc2nccc(-c3c[nH]c4cnccc34)n2)c1
Marked response: 1 to 10 µM

---

pIC50 overview
# Test system: Myc
# protocol-description: Myc inhibition assay: Myc expression per cell by anti-Myc immunofluorescence, high-content imaging
# Type: cell-based, human (patient-derived medulloblastoma xenograft cells)
# run-conditions: Table 1; medulloblastoma PDX cells, 4 h; read-out: IC50 (Myc inhibition)
pIC50: −log10 of the molar value.

Example molecules with recorded pIC50:
molecule	target-of-assay	recorded-result
Cc1cccc(C)c1-c1cccc(Nc2nccc(-c3ccc4[nH]cnc4c3)n2)c1 [Compound 3]	Myc	5.00 to 6.00
c1ccc(-c2cccc(Nc3nccc(-c4ccc5[nH]cnc5c4)n3)c2)nc1 [Compound 44]	Myc	> 6.70

Please find the next molecule below.
Exam item: Dear colleague, please send me the reported pIC50 for COc1cc(-c2ccnc(Nc3cccc(C)c3)n2)ccn1 [Compound 160] when you can.
Marked response: 5.00 to 6.00

---

# Test system: Myc
# protocol-description: Myc inhibition assay: Myc expression per cell by anti-Myc immunofluorescence, high-content imaging
# Format: cell-based, human (patient-derived medulloblastoma xenograft cells)
# run-conditions: Table 1; medulloblastoma PDX cells, 4 h; read-out: IC50 (Myc inhibition)
pIC50: −log10 of the molar value.
quantity-name: pIC50

In the examples that follow, each entry is paired with its recorded pIC50.
molecule	pIC50
COc1cc(-c2ccnc(Nc3ccncn3)n2)ccn1 [Compound 177]	4.00 to 5.00
COc1cc(-c2ccnc(Nc3cncnc3)n2)ccn1 [Compound 179]	4.00 to 5.00

In the following, a different molecule is considered.
Exam item: Fill in pIC50 for record Oc1ccc(-c2ccnc(Nc3ccccc3)n2)cn1 [Compound 238]
Marked response: 5.00 to 6.00

---

Entries annotated with measured IC50
# Tested on: Myc
# protocol-description: Myc inhibition assay: Myc expression per cell by anti-Myc immunofluorescence, high-content imaging
# Format: cell-based, human (patient-derived medulloblastoma xenograft cells)
# run-conditions: Table 1; medulloblastoma PDX cells, 4 h; read-out: IC50 (Myc inhibition)

Here's what some known entries look like.
molecule	recorded-result
c1coc(CNc2nccc(-c3ccc4[nH]cnc4c3)n2)c1	1 to 10 µM
Oc1ncc(-c2ccnc(Nc3cccc(F)c3)n2)s1	0.2 to 1 µM
Oc1cc(-c2ccnc(Nc3ccccc3)n2)ccn1	1 to 10 µM
O=C(Nc1cccc(Nc2nccc(-c3ccc4[nH]cnc4c3)n2)c1)c1ccco1	< 0.2 µM

Exam item: Recall and state the measured IC50 for O=C(c1cccc(Nc2nccc(-c3ccc4[nH]cnc4c3)n2)c1)N1CCCC1 .
Marked response: 10 to 100 µM

Exam item: Return IC50 (reported value) for this molecule: Oc1cc(-c2ccnc(Nc3cncnc3)n2)ccn1
Marked response: 10 to 100 µM

Exam item: Name the recorded IC50 of the item Cn1cnc2cc(-c3ccnc(Nc4cccc(C(F)(F)F)c4)n3)ccc21 [Compound 95] in your answer.
Marked response: < 0.2 µM

Exam item: Identify measured IC50 associated with Fc1cccc(Nc2nccc(-c3ccc4ocnc4c3)n2)c1
Marked response: 1 to 10 µM

Exam item: Using known records, supply IC50 for COC(=O)c1cccc(Nc2nccc(-c3ccnc(O)c3)n2)c1
Marked response: 1 to 10 µM

Exam item: Note down IC50 recorded for Oc1cc(-c2ccnc(Nc3cncc(C(F)(F)F)c3)n2)ccn1
Marked response: 0.2 to 1 µM

Exam item: Provide IC50 value for the following molecule: O=c1[nH]c2ccc(-c3ccnc(Nc4cccc(C(F)(F)F)c4)n3)cc2[nH]1
Marked response: 10 to 100 µM

Exam item: Recall and state the measured IC50 for c1cc(Nc2nccc(-c3ccc4[nH]cnc4c3)n2)cc(N2CCNCC2)c1 .
Marked response: 1 to 10 µM

---

# Test system: Myc
# protocol-description: Myc inhibition assay: Myc expression per cell by anti-Myc immunofluorescence, high-content imaging
# Assay type: cell-based, human (patient-derived medulloblastoma xenograft cells)
# run-conditions: Table 1; medulloblastoma PDX cells, 4 h; read-out: IC50 (Myc inhibition)
quantity-name: IC50

compound	IC50
CC(C)(C)c1ccccc1Nc1nccc(-c2ccc3[nH]cnc3c2)n1	1000 to 10000 nM
CC(=O)Nc1cccc(Nc2nccc(-c3ccc4[nH]cnc4c3)n2)c1	200 to 1000 nM
FC(F)(F)c1cccc(Nc2nccc(-c3ccc4nc[nH]c4c3)n2)c1	< 200 nM
c1cc(Nc2nccc(-c3ccc4[nH]cnc4c3)n2)cc(N2CCOCC2)c1	< 200 nM
CC(C)C(=O)Nc1cccc(Nc2nccc(-c3ccc4[nH]cnc4c3)n2)c1	200 to 1000 nM

Exam item: Return value of IC50 for input c1ccc(-n2cc(Nc3nccc(-c4ccc5[nH]cnc5c4)n3)cn2)nc1 , no commentary.
Marked response: < 200 nM

Exam item: For Cn1cnc2cc(-c3ccnc(Nc4cccc(C(F)(F)F)c4)n3)ccc21 [Compound 34] , write its IC50.
Marked response: 1000 to 10000 nM

Exam item: For the compound c1cc(Nc2nccc(-c3ccc4[nH]cnc4c3)n2)cc(-n2ccnn2)c1 , give its reported IC50.
Marked response: < 200 nM

Exam item: # return recorded IC50 for entry CN(c1ccccc1)c1nccc(-c2cccc(O)n2)n1
Marked response: 10000 to 100000 nM

Exam item: Return IC50 for the following compound: Oc1cccc(Nc2nccc(-c3ccc4[nH]cnc4c3)n2)n1
Marked response: 10000 to 100000 nM

Exam item: State its IC50 for this compound: CN(c1ccccc1)c1nccc(-c2ccnc(O)c2)n1
Marked response: 10000 to 100000 nM

Exam item: Please list IC50 recorded for the compound CNS(=O)(=O)c1cccc(Nc2nccc(-c3ccc4[nH]cnc4c3)n2)c1
Marked response: < 200 nM

Exam item: Identify measured IC50 associated with FC(F)(F)c1cncc(Nc2nccc(-c3ccc4[nH]cnc4c3)n2)c1
Marked response: 10000 to 100000 nM
